# study.system: rat (r) TRPV3 (Rattus norvegicus, UniProt E9PU00)
# Sequence (E9PU00 1-791): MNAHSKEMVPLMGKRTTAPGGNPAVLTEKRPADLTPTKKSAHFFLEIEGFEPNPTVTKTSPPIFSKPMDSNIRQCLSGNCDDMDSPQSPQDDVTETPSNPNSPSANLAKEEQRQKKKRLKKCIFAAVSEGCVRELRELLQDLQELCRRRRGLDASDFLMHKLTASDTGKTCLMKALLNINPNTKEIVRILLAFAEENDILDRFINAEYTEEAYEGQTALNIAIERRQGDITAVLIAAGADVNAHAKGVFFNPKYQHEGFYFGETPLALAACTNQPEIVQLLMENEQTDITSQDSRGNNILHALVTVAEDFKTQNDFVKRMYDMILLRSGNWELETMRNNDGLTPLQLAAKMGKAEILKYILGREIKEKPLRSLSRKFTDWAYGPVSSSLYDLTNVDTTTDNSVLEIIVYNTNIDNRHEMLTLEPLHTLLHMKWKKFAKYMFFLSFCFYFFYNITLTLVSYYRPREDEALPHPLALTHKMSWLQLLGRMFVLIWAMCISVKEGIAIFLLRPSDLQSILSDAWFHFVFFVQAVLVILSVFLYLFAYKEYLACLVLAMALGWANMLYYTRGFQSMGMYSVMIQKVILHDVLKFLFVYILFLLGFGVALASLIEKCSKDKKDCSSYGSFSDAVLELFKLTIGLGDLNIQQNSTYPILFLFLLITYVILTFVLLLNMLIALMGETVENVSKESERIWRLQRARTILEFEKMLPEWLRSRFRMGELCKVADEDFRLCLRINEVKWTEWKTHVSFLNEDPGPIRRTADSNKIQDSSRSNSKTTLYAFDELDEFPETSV
# test.protocol: Whole-cell patch clamp, rTRPV3 Phase 1 / Phase 2 currents
# Format: cell-based
# conditions: Phase 2 current; read-out: rTRPV3 (nM) (Phase 2)
As shown below, each of these compounds has a reported IC50 value.

[
  {
    "compound": "OCc1cc(C(O)c2ccccc2Cl)ccc1N1CC[C@H](Oc2ncccc2Cl)C1 (stereo partly drawn)",
    "study.system": "rat (r) TRPV3 (Rattus norvegicus, UniProt E9PU00)",
    "IC50 / nM": 21.3
  },
  {
    "compound": "NC(=O)c1cc(-c2ccccc2)ccc1N1CC[C@@H](Oc2ccc(C(F)(F)F)cn2)C1",
    "study.system": "rat (r) TRPV3 (Rattus norvegicus, UniProt E9PU00)",
    "IC50 / nM": 776
  },
  {
    "compound": "NC(=O)c1cc(-c2ccc(F)cc2)ccc1N1CC[C@H](Oc2ccc(C(F)(F)F)cn2)C1",
    "study.system": "rat (r) TRPV3 (Rattus norvegicus, UniProt E9PU00)",
    "IC50 / nM": 3250
  }
]

----------
# study.system: human hERG channels (Homo sapiens (Human), UniProt Q12809)
# Sequence (Q12809 whole entry): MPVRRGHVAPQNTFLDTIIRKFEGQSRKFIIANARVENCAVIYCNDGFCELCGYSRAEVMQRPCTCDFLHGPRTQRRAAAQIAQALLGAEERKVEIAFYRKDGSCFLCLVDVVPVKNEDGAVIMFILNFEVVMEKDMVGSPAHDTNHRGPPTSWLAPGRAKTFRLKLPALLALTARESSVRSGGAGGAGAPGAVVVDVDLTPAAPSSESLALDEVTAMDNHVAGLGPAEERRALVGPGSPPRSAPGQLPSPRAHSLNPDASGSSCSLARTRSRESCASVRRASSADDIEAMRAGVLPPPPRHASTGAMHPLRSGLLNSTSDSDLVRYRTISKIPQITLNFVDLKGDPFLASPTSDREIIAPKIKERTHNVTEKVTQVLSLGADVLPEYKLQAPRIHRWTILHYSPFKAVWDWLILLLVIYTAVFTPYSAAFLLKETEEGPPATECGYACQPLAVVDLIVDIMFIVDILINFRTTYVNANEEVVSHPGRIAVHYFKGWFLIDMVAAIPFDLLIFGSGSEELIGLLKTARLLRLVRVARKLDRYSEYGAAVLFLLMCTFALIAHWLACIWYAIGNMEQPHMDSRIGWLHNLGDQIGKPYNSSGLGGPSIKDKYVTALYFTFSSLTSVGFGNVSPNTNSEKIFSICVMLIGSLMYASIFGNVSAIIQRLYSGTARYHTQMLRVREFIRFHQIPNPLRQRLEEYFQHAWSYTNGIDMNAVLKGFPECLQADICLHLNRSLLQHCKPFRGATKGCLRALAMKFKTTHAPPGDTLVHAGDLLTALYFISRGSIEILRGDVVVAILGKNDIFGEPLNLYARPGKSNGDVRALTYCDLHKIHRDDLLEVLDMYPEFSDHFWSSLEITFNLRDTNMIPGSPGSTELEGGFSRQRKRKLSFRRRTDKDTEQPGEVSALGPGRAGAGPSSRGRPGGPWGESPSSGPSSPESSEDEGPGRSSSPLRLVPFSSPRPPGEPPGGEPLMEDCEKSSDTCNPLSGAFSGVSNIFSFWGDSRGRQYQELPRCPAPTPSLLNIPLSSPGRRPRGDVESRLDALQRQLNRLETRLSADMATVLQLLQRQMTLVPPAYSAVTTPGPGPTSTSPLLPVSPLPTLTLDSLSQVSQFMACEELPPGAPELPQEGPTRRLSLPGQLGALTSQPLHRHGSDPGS
# test.protocol: hERG assay (patch clamp, CHO cells)
# Type: cell-based
# conditions: (PL); read-out: hERG (nM) (PL)

[
  {
    "molecule": "CC(C)c1ccccc1-c1ccc(C2CCN(Cc3ccc(F)cn3)C2)c(CO)c1 (stereo not shown)",
    "IC50": "< 1000 nM"
  },
  {
    "molecule": "CCc1ccccc1Oc1ccc(C2CCN(C(=O)c3ncccc3Cl)C2)c(CO)c1 (stereo not shown)",
    "IC50": "16000 nM"
  },
  {
    "molecule": "CC(C)c1ccccc1Oc1ccc(C2CCN(C(=O)c3ncccc3Cl)C2)c(C(N)=O)c1 (stereo not shown)",
    "IC50": "10400 nM"
  },
  {
    "molecule": "CCc1ccccc1-c1ccc(C2CCN(C(=O)c3cc(Cl)ccn3)C2)c(CO)c1 (stereo not shown)",
    "IC50": "13400 nM"
  }
]

----------
Parameter: IC50. Scope: all listed entries.
# study.system: UniProt Q8NET8
# test.protocol: Whole-cell patch clamp, hTRPV3 Phase 1 / Phase 2 currents
# Assay type: cell-based
# conditions: Phase 1 current; read-out: hTRPV3 (nM) (Phase 1)
readout: IC50 (nM)

[
  {
    "molecule": "O=C(c1ccc(F)cc1)c1ccc(N2CC[C@H](Oc3ncccc3Cl)C2)c(CO)c1",
    "readout": "IC50",
    "unit.text": "nM",
    "quantitative.result": 56.9
  },
  {
    "molecule": "Cc1cccnc1O[C@H]1CCN(c2ccc(-c3ccccc3)cc2CO)C1",
    "readout": "IC50",
    "unit.text": "nM",
    "quantitative.result": 148
  },
  {
    "molecule": "COc1ccccc1-c1ccc(N2CC[C@H](Oc3ncccc3C)C2)c(CO)n1",
    "readout": "IC50",
    "unit.text": "nM",
    "quantitative.result": 1010
  },
  {
    "molecule": "O=C(c1ccc(CCO)c(N2CC[C@H](Oc3ncccc3Cl)C2)c1)c1ccccc1Cl",
    "readout": "IC50",
    "unit.text": "nM",
    "quantitative.result": 770
  },
  {
    "molecule": "CC(C)c1ccccc1Oc1ccc(N2CC[C@H](Oc3ccc(C#N)cn3)C2)c(CCO)c1",
    "readout": "IC50",
    "unit.text": "nM",
    "quantitative.result": 61.2
  }
]

----------
compounds and their reported solubility at 40 min
# test.protocol: Aqueous solubility assay in Normal Ringer Solution
# conditions: Normal Ringer Solution, saline or isotonic, kinetic from dmso stock
readout: solubility at 40 min

[
  {
    "compound": "Cc1ccccc1-c1ccc(N2CC[C@H](Oc3ncccc3C)C2)c(CO)n1 [Compound 1-179]",
    "result": "> 0.73 µM"
  },
  {
    "compound": "NC(=O)c1cc(C(=O)c2ccccc2)ccc1N1CC[C@H](Oc2ncccc2Cl)C1 [Compound 1-136]",
    "result": "> 15 µM"
  },
  {
    "compound": "Cc1ccccc1Oc1ccc(CO)c(N2CC[C@H](Oc3ncccc3Cl)C2)c1 [Compound 1-241]",
    "result": "~0.37 µM"
  },
  {
    "compound": "OCc1cc(-c2ccccc2)ccc1N1CC[C@H](Nc2nc(C(F)(F)F)cs2)C1 [Compound 1-394]",
    "result": "1.87 µM"
  },
  {
    "compound": "CC(C)c1ccccc1-c1ccc([C@@H]2CCN(C(=O)c3ccc(F)cn3)C2)c(CO)c1 [Compound 2-77]",
    "result": "> 15.5 µM"
  },
  {
    "compound": "CCc1ccccc1-c1ccc(C2CCN(C(=O)c3ccc(OC)cn3)C2)c(CO)c1 (centres unmarked) [Compound 2-73]",
    "result": "> 26.2 µM"
  },
  {
    "compound": "CCc1ccccc1-c1ccc(CO)c(N2CC[C@H](Oc3ncccc3Cl)C2)c1 [Compound 1-229]",
    "result": "0.16 µM"
  },
  {
    "compound": "NC(=O)c1cc(C(O)c2ccccc2)ccc1N1CC[C@H](Oc2ncccc2Cl)C1 (some centres unmarked) [Compound 1-137]",
    "result": "> 17.7 µM"
  }
]

----------
// values below are reported IC50
# study.system: hTRPV3 (Homo sapiens (Human), UniProt Q8NET8)
# Sequence (Q8NET8 whole entry): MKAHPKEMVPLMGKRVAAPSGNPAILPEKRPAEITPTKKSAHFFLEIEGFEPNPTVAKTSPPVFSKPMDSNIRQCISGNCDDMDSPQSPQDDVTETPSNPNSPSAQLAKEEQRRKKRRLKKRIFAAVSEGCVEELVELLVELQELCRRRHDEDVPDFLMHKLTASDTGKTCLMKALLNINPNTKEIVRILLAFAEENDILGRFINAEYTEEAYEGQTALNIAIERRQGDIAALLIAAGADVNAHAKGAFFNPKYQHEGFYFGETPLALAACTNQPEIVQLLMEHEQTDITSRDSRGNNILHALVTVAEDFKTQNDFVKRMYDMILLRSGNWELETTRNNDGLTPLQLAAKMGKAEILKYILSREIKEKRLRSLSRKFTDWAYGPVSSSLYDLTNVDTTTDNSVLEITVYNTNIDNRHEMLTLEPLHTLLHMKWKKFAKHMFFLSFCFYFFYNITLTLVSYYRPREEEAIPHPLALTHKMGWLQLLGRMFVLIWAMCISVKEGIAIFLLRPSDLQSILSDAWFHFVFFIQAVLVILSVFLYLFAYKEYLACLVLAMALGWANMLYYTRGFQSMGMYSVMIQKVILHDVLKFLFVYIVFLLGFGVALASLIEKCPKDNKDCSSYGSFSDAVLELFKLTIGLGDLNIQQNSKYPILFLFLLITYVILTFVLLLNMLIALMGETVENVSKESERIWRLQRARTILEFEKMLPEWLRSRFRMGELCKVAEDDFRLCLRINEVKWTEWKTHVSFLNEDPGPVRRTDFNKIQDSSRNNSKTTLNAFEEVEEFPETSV
# test.protocol: Whole-cell patch clamp, hTRPV3 Phase 1 / Phase 2 currents
# Format: cell-based
# conditions: Phase 1 current, inward, whole-cell patch clamp; read-out: hTRPV3 Patch P1 Inwd
readout: IC50

[
  {
    "compound": "COc1ccc(C(=O)N2CCC(c3ccc(-c4ccccc4C4CC4)cc3CO)C2)nc1 (centres unmarked)",
    "readout": "IC50",
    "result": "10 to 100 nM"
  },
  {
    "compound": "OCc1ccccc1-c1ccc(N2CC[C@H](Oc3ccc(C(F)(F)F)cn3)C2)c(CO)c1",
    "readout": "IC50",
    "result": "100 to 1000 nM"
  },
  {
    "compound": "FC(F)(F)c1ccc(O[C@@H]2CCN(c3ccccc3-c3ccccc3)C2)nc1",
    "readout": "IC50",
    "result": "> 1000 nM"
  },
  {
    "compound": "CC(C)c1ccccc1Oc1ccc(N2CC[C@H](Oc3ncccc3Cl)C2)c(CO)c1",
    "readout": "IC50",
    "result": "< 10 nM"
  },
  {
    "compound": "OCc1cc(Oc2ccccc2Cl)ccc1N1CC[C@H](Oc2ncccc2Cl)C1",
    "readout": "IC50",
    "result": "10 to 100 nM"
  },
  {
    "compound": "NC(=O)c1ccc(-c2ccccc2)cc1N1CC[C@H](Oc2ccc(C(F)(F)F)cn2)C1",
    "readout": "IC50",
    "result": "> 1000 nM"
  },
  {
    "compound": "CC(O)c1cc(F)ccc1-c1ccc(C2CCN(C(=O)c3ccc(F)cn3)C2)c(CO)c1 (centres unmarked)",
    "readout": "IC50",
    "result": "> 1000 nM"
  },
  {
    "compound": "O=C(c1ccc(C(F)(F)F)cn1)N1CCC(c2ccc(-c3ccccc3)nc2CO)C1 (centres unmarked)",
    "readout": "IC50",
    "result": "100 to 1000 nM"
  }
]

----------
# study.system: hTRPV3 (Homo sapiens (Human))
# test.protocol: Whole-cell patch clamp, hTRPV3 Phase 1 / Phase 2 currents
# Assay type: cell-based
# conditions: Phase 1 current, human TRPV3; read-out: hTRPV3 (nM) Phase 1
Where a name gives a salt, the structure may show the parent alone.
In this section we review reported IC50 values for a set of molecules.

[
  {
    "molecule": "COc1cnc(C(=O)N2CCC(c3ccc(-c4ccccc4C4CC4)cc3CO)C2)cn1 (centres unmarked)",
    "unit.text": "nM",
    "value.modifier": "=",
    "IC50": 31.5
  },
  {
    "molecule": "CCc1ccccc1-c1ccc(C2CCN(C(=O)c3ccc(F)cn3)C2)c(CO)c1 (centres unmarked)",
    "unit.text": "nM",
    "value.modifier": "=",
    "IC50": 19.6
  },
  {
    "molecule": "CCc1ccccc1-c1ccc(C2CCN(C(=O)c3ncccc3F)C2)c(CO)c1 (centres unmarked)",
    "unit.text": "nM",
    "value.modifier": "=",
    "IC50": 91.3
  },
  {
    "molecule": "COCc1ccccc1-c1ccc(C2CCN(C(=O)c3ccc(F)cn3)C2)c(CO)c1 (centres unmarked)",
    "unit.text": "nM",
    "value.modifier": "=",
    "IC50": 153
  },
  {
    "molecule": "CCc1ccccc1-c1ccc(C2CCN(C(=O)c3ccc(OC)cn3)C2)c(CO)c1 (centres unmarked)",
    "unit.text": "nM",
    "value.modifier": "=",
    "IC50": 20.5
  },
  {
    "molecule": "CCc1nccnc1-c1ccc(C2CCN(C(=O)c3ccc(F)cn3)C2)c(CO)c1 (centres unmarked)",
    "unit.text": "nM",
    "value.modifier": ">",
    "IC50": 3200
  },
  {
    "molecule": "CC(C)c1ccccc1Oc1ccc(C2CC(=O)N(Cc3ncccc3Cl)C2)c(CO)c1 (centres unmarked)",
    "unit.text": "nM",
    "value.modifier": "=",
    "IC50": 169
  },
  {
    "molecule": "CCc1ccccc1C(=O)c1ccc(C2CCN(C(=O)c3ncccc3Cl)C2)c(CO)c1 (centres unmarked)",
    "unit.text": "nM",
    "value.modifier": ">",
    "IC50": 3200
  },
  {
    "molecule": "O=C(c1ncccc1Cl)N1CCC(c2ccc(-c3ccccc3C3CC3)cc2CO)C1 (centres unmarked)",
    "unit.text": "nM",
    "value.modifier": "=",
    "IC50": 88.4
  },
  {
    "molecule": "CC(C)c1ccccc1Oc1ccc(C2CCN(C(=O)c3ccccn3)C2)c(CO)c1 (centres unmarked)",
    "unit.text": "nM",
    "value.modifier": "=",
    "IC50": 193
  },
  {
    "molecule": "CCc1ccccc1Oc1ccc(C2CC(=O)N(Cc3ccccn3)C2)c(C(N)=O)c1 (centres unmarked)",
    "unit.text": "nM",
    "value.modifier": ">",
    "IC50": 3200
  },
  {
    "molecule": "Cc1ccc(C(=O)c2ccc(C3CCN(C(=O)c4ncccc4Cl)C3)c(CO)c2)cc1 (centres unmarked)",
    "unit.text": "nM",
    "value.modifier": ">",
    "IC50": 3200
  },
  {
    "molecule": "Cc1cc(C(=O)N2CCC(c3ccc(-c4ccccc4C4CC4)cc3CO)C2)no1 (centres unmarked)",
    "unit.text": "nM",
    "value.modifier": "=",
    "IC50": 62.9
  },
  {
    "molecule": "CCc1ccccc1Oc1ccc(C2CCN(C(=O)c3ncccc3Cl)C2)c(CO)c1 (centres unmarked)",
    "unit.text": "nM",
    "value.modifier": "=",
    "IC50": 95.1
  },
  {
    "molecule": "CC(C)c1ccccc1-c1ccc([C@@H]2CCN(C(=O)c3ccc(F)cn3)C2)c(CO)c1",
    "unit.text": "nM",
    "value.modifier": "=",
    "IC50": 2.27
  },
  {
    "molecule": "CCc1ccccc1-c1ccc(C2CCN(C(=O)c3ccc(Cl)cn3)C2)c(CO)c1 (centres unmarked)",
    "unit.text": "nM",
    "value.modifier": "=",
    "IC50": 7.37
  },
  {
    "molecule": "Cc1cccc(CN2CCC(c3ccc(Oc4ccccc4C(C)C)cc3CO)C2)n1 (centres unmarked) [Compound 2-94, hydrochloride]",
    "unit.text": "nM",
    "value.modifier": "=",
    "IC50": 339
  }
]
